Tested on: KM20L2 colon
test.name: NCI tumour cell line growth inhibition, 48 h
recorded.metric: TGI

Param readout= TGI; system= KM20L2 colon; entry= C[N+](C)(C)CC(=O)N/N=C(/C=C/c1ccccc1)CC1OC(=O)c2ccccc21 (stereo unspecified) ; returns value.
> 100 µM

Param readout= TGI; system= KM20L2 colon; entry= Cc1cn(C2CC(O)C(CO)C2C)c(=O)[nH]c1=O (stereo unspecified) ; returns value.
> 100 µM

Param readout= TGI; system= KM20L2 colon; entry= COc1ccc(CN(O)C2C(CO)OC(n3cc(I)c(=O)[nH]c3=O)C2O)cc1 (stereo unspecified) ; returns value.
> 100 µM

Param readout= TGI; system= KM20L2 colon; entry= COCCNC(=O)C1C(=O)N(CCOC)C(=O)/C1=N/N (stereo unspecified) ; returns value.
> 100 µM

Param readout= TGI; system= KM20L2 colon; entry= `N#Cc1c([N+](=O)[O-])cc(C(F)(F)F)cc1[N+](=O)[O-]` ; returns value.
44.2 µM

Param readout= TGI; system= KM20L2 colon; entry= `CC(=O)NNc1nc(C)c(C(/C=C/c2ccc(/C=C/C(=N\NC(=O)c3ccncc3)c3sc(NNC(C)=O)nc3C)cc2)=N/NC(=O)c2ccncc2)s1` ; returns value.
> 100 µM

###

System: HL-60(TB) leukemia
test.name: NCI tumour cell line growth inhibition, 48 h
Would you kindly list GI50 for each of these compounds?

Name the reported GI50 value associated with the compound `COc1ccc(CN2CCc3c(Cl)nc(N)nc3C2=O)c(OC)c1`
1670 nM

Name the reported GI50 value associated with the compound `CCc1nc(N)nc(N)c1-c1ccc(Cl)cc1`
6670 nM

Name the reported GI50 value associated with the compound `CCc1cc(C(N)=O)ccc1-n1nc(C(C)C)c2c(-n3cnc(-c4cnn(C)c4)c3)ccnc21`
1140 nM

Name the reported GI50 value associated with the compound `CC(C)Oc1cc(OCC(=O)O)cc(C(=O)N(CCC(N)=O)C(=O)Nc2ccc(C(=O)O)cc2OC(C)C)c1`
> 100000 nM

Name the reported GI50 value associated with the compound CC(=O)O[C@@H]1C=CC(=O)C2(CC(=O)O[C@@H]2/C=C(\C)CCC=C(C)C)C1 (some centres not stated)
184 nM

Name the reported GI50 value associated with the compound CCN(CC)CCn1c(=N)n(CC(O)c2ccc(Cl)c(Cl)c2)c2ccccc21 (configuration not stated)
5120 nM

Name the reported GI50 value associated with the compound `CCOC(=O)c1cc2c(n1Cc1cccc(OC)c1)-c1oncc1CC2`
297 nM

Name the reported GI50 value associated with the compound `C#Cc1cccc(NC(=O)Nc2ccccc2NC(=O)CCl)c1`
25200 nM

Name the reported GI50 value associated with the compound `COc1ccc(CCNc2nc3ccccc3c3[nH]c4ccccc4c23)cc1OC`
1650 nM

Name the reported GI50 value associated with the compound COc1cc([C@@H]2c3cc4c(cc3[C@H](OC3OC5COC(c6ccccc6)OC5C(O)C3O)[C@H]3COC(=O)[C@H]23)OCO4)cc(OC)c1OC (some centres not stated)
342 nM

Name the reported GI50 value associated with the compound `O=C(CCCCCCc1nc2ccc(Br)cc2[nH]1)NO`
461 nM

Name the reported GI50 value associated with the compound `CC/C=C/[C@@H]1C=C[C@@H]2CCC[C@H]2[C@@H]1CC[C@H](O)[C@H](C)N`
1330 nM

Name the reported GI50 value associated with the compound `Cc1cc2c(-c3nc4ccccc4[nH]3)c(O)c(O)cc2c(O)c1-c1c(C)cc2c(-c3nc4ccccc4[nH]3)c(O)c(O)cc2c1O`
32.8 nM

Name the reported GI50 value associated with the compound `Cn1cc(-c2ccc3cc(-c4ccc(CC(=O)Nc5cc(C(C)(C)C)nn5C)cc4)cnc3c2)cn1`
314 nM

Name the reported GI50 value associated with the compound `Cc1cc(Cl)n2c(nc3ccccc32)c1C#N`
241 nM

Name the reported GI50 value associated with the compound `O=C(Nc1ccc(Cl)c(Cl)c1)Nc1ccc(Cl)c([N+](=O)[O-])c1`
947 nM

Name the reported GI50 value associated with the compound `O=C1CCC/C=C\C[C@H]2C=C(Cl)C(=O)/C2=C/C[C@H](CCCCC(F)(F)F)OC(=O)CCC/C=C\C[C@H]2C=C(Cl)C(=O)/C2=C/C[C@H](CCCCC(F)(F)F)O1`
362 nM
